Catalogue of binders with associated Kd
molecular target: T1, human mature TGFβ1 (Homo sapiens, UniProt P01137); assay: SPR; Biacore T200; antibody captured on a Protein A sensor chip (about 90 RU); mature TGFβ isoform injected, five-fold dilutions 0.008 nM to 5 nM; HBS-EP pH 7.4, 150 mM NaCl; 37 °C; 100 μl/min; 3 min association, 60 min dissociation; one-to-one Langmuir model, global fit; settings: both partners purified
T1 construct: Transforming Growth Factor-beta 1, human, mature form (cut from the precursor); also called TGFb1; source: bought: PeproTech
T1 sequence (P01137 279-390): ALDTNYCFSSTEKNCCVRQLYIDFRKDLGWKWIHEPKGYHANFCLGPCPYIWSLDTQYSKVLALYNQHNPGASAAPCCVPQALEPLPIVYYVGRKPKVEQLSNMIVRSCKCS
OBSERVABLE: Kd

binder="h4A11.v2.1 (antibody, V domains shown, as the VH of m7 (h4A11.v2) with the stated change; numbers count on: Kabat numbering of the heavy chain; as the VL of m7 (h4A11.v2); human IgG1; also called v2.1_R19S; source: Expi293F, transient, purified (Protein A, SEC)) VH: EQQLVESGGGLVQPGGSLSLSCAVSGFSLSSYTVNWVRQAPGKGLEWIGYISYGGSAYYASWANGRFTISKDSAKNSVYLQMNSLRAEDTAVYFCARHMQVGGAPTGSMAAFDPWGPGTLVTVSS VL: DAQLTQSPSSLSASVGDRVTITCQSSQSVYNNNYLSWFQQKPGKPPKLLIYGASTLTSGVPSRFSGSGSGTDFTLTISSLQPEDFATYYCAGGYSGSSDKYAFGGGTKVEIK" val="> 5 nM"
binder="h4A11.v7.3 (antibody, V domains shown, as the VH of m12 (h4A11.v7); numbers count on: Kabat numbering of the heavy chain; as the VL of m12 (h4A11.v7); human IgG1; also called v7.3_S19R, S79Y, K81Q; source: Expi293F, transient, purified (Protein A, SEC)) VH: EQQLQESGPGLVKPSETLRLTCTVTGFSLSSYTVNWVRQPAGKGLEWIGYISYGGSAYYASWANGRFTISKDSSKNQVYLQLSSVTAADTAVYFCARHMQVGGAPTGSMAAFDPWGPGTLVTVSS VL: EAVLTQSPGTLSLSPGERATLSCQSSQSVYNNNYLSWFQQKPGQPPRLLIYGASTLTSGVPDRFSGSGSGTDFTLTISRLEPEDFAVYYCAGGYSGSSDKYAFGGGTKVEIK" val="> 5 nM"
binder="h4A11.v7.6 (antibody, V domains shown, as the VH of m12 (h4A11.v7); numbers count on: Kabat numbering of the heavy chain; as the VL of m12 (h4A11.v7); human IgG1; also called v7.6_S19R, S79W, K81R; source: Expi293F, transient, purified (Protein A, SEC)) VH: EQQLQESGPGLVKPSETLRLTCTVTGFSLSSYTVNWVRQPAGKGLEWIGYISYGGSAYYASWANGRFTISKDSSKNQVWLRLSSVTAADTAVYFCARHMQVGGAPTGSMAAFDPWGPGTLVTVSS VL: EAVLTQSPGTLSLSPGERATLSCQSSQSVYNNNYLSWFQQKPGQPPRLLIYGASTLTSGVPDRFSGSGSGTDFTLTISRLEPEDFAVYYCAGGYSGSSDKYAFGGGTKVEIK" val="> 5 nM"
binder="h4A11.v2.5 (antibody, V domains shown, as the VH of m7 (h4A11.v2) with the stated changes; numbers count on: Kabat numbering of the heavy chain; as the VL of m7 (h4A11.v2); human IgG1; also called v2.5_ R19S, Q81S; source: Expi293F, transient, purified (Protein A, SEC)) VH: EQQLVESGGGLVQPGGSLSLSCAVSGFSLSSYTVNWVRQAPGKGLEWIGYISYGGSAYYASWANGRFTISKDSAKNSVYLSMNSLRAEDTAVYFCARHMQVGGAPTGSMAAFDPWGPGTLVTVSS VL: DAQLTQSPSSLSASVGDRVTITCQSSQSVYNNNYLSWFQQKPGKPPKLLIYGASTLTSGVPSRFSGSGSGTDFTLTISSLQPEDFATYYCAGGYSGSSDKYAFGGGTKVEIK" val="> 5 nM"
binder="h4A11.v2.4 (antibody, V domains shown, as the VH of m7 (h4A11.v2) with the stated changes; numbers count on: Kabat numbering of the heavy chain; as the VL of m7 (h4A11.v2); human IgG1; also called v2.4_ R19S, Y79S; source: Expi293F, transient, purified (Protein A, SEC)) VH: EQQLVESGGGLVQPGGSLSLSCAVSGFSLSSYTVNWVRQAPGKGLEWIGYISYGGSAYYASWANGRFTISKDSAKNSVSLQMNSLRAEDTAVYFCARHMQVGGAPTGSMAAFDPWGPGTLVTVSS VL: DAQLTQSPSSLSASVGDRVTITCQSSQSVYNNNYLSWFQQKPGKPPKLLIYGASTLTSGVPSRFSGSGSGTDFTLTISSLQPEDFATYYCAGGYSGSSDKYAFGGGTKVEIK" val="> 5 nM"
